Quick reference for TGI among some molecules
System: PC-3 prostate
Assay: NCI tumour cell line growth inhibition, 48 h

Here's what some known entries look like.
- COc1ccccc1Cn1nc(OC)c2cc([N+](=O)[O-])ccc21: > 100 µM
- CC(C)NC(=O)OCc1c(COC(=O)NC(C)C)n(C)c2c1ccc1ccccc12: 17.1 µM
- O=C1C=C(NCCc2cc(Br)c(O)c(Br)c2)C(=O)c2ncccc21: 27.1 µM
- CN(C)c1nc(-c2ccccc2)c(C(=O)c2c[nH]c3ccccc23)s1: > 100 µM

Now look at this one.
Exercise: So what's the measured TGI for this one? COC(=O)CCn1cnc2c(SC)ncnc21
Key: > 100 µM

====

Test system: SW-620 colon
Assay: NCI tumour cell line growth inhibition, 48 h
Quick reference for TGI among some compounds

Here's what some known entries look like.
* O=[N+]([O-])O.[Ga] | > 10000 µM
* COc1cc2c3c(n(CCCNCCCNCCCn4c5c(c6ccccc6c4=O)C(=O)c4ccccc4-5)c(=O)c2cc1OC)-c1cc2c(cc1C3=O)OCO2 | 0.197 µM
* CC1OC(OCC2COC(O)(Oc3c(-c4ccc(O)c(O)c4)oc4cc(O)cc(O)c4c3=O)C(O)C2O)C(O)C(O)C1O (configuration not stated) | > 100 µM

Exercise: So what's the measured TGI for this one? CCOC(=O)c1sc(=S)c2c(C(=O)OCC)c(C(=O)OCC)sc2c1C(=O)OCC
Key: 56.4 µM

Exercise: So what's the measured TGI for this one? CN(C)c1ccc(/C=C(\NC(=O)c2ccccc2)C(=O)NC(CCC(=O)O)C(=O)O)cc1 (configuration not stated)
Key: > 100 µM

Exercise: So what's the measured TGI for this one? COc1ccc2oc(C(=O)N3CC(CCl)c4ccc([N+](=O)[O-])cc43)cc2c1 (configuration not stated)
Key: > 100 µM

Exercise: So what's the measured TGI for this one? Cc1cc(C)c2c(=O)n(CN3CCC(O)(c4ccccc4)CC3)sc2n1
Key: 69.5 µM

Exercise: So what's the measured TGI for this one? NCCC(O)(P(=O)(O)O)P(=O)(O)O
Key: > 100 µM

====

Quick reference for TGI among some compounds
Test system: SK-OV-3 ovarian
Assay: NCI tumour cell line growth inhibition, 48 h
Response body: numeric value in µM, unit text excluded.

• CN(CCCCN(C)CCc1ccc(Cl)c(Cl)c1)CCCCN1CCCC1 = 6.05

Now look at this one.
Exercise: So what's the measured TGI for this one? CCOC(=O)c1sc(Nc2ccc(Cl)cc2)nc1C
Key: 6.8

====

Tested on: SNB-19 CNS
Assay: NCI tumour cell line growth inhibition, 48 h
Reported property: GI50

• Cc1nc(NC(=O)CCCN2C(=O)c3cccc4cccc(c34)C2=O)sc1C(=O)Nc1cc(C(=O)NCCCN(C)C)n(C)c1 = > 100 µM

Exercise: Any idea what GI50 came out for N.N.NCCCCN.O=C([O-])C1(C(=O)[O-])CCC1.O=C([O-])C1(C(=O)[O-])CCC1.[Pt+4].[Pt+4] on SNB-19 CNS?
Key: 25.9 µM

Exercise: Any idea what GI50 came out for C[C@@H]1C=C2C(=O)O[C@@H]3CC[C@H](C1)[C@]23O on SNB-19 CNS?
Key: 22.9 µM

====

Quick reference for TGI among some molecules
Tested on: TK-10 renal
Assay: NCI tumour cell line growth inhibition, 48 h
Response body: numeric value in µM, unit text excluded.

• C[C@H]1[C@H](C)CC[C@]2(C(=O)O)CC[C@]3(C)C(=CC[C@@H]4[C@@]5(C)C/C(=C/c6ccco6)C(=O)C(C)(C)[C@@H]5CC[C@]43C)[C@H]12 = 26.3

Exercise: So what's the measured TGI for this one? CN(CCCCN(C)CCc1ccc(Cl)c(Cl)c1)CCCCN1CCCC1
Key: 2.99

Exercise: So what's the measured TGI for this one? CC(C)NC(=O)OCCN=C1c2ccccc2CCc2ccccc21
Key: 92.7

Exercise: So what's the measured TGI for this one? COc1cc(-c2cc(-c3nc4ccc(Cl)cc4[nH]3)[nH]n2)cc(OC)c1OC
Key: 15.8

====

Test system: IGROV1 ovarian
Test: NCI tumour cell line growth inhibition, 48 h
Quick reference for TGI among some molecules

Here's what some known entries look like.
* Cc1ccc(C)c(NC(=O)CC/C(=N\NC(=O)C(N)=O)C(C)C(=O)c2ccc(O)cc2)c1 (configuration not stated) | > 100 µM
* O=C1OC(O)C(Oc2ccc(Cl)cc2)=C1Cl (configuration not stated) | > 100 µM
* NS(=O)(=O)c1ccc(CCN=C=S)cc1 | 4.96 µM
* Oc1c(C2=N[C@H]3CCCC[C@@H]3N2)ccc2ccccc12 | > 100 µM
* C[C@@]12CCC(=O)C=C1CC[C@H]1C2=CC[C@]2(C)C1CC[C@@]2(C)O (some centres not stated) | > 100 µM
* CC1C=CC(=O)C(n2cc(F)c(=O)[nH]c2=O)O1 (configuration not stated) | 45.2 µM
* CCOC(=O)[C@@]12CCC(C1=O)[C@](C)(O)C[C@@H]2c1ccccc1 | > 100 µM
* Cc1cc(C)c2c(=O)n(CN3CCC(O)(c4ccccc4)CC3)sc2n1 | > 100 µM
* O=C1CC2(CCNCC2)C(=O)N1N1CCCC1 | > 100 µM
* N#CC(c1cc2c(cc1Br)OCO2)N1CCOCC1 (configuration not stated) | > 100 µM

Now look at this one.
Exercise: So what's the measured TGI for this one? CCOC(=O)c1c(C(F)(F)F)n([O-])c2ccc(OC)cc2[n+]1=O
Key: 26.5 µM

====

Quick reference for TGI among some compounds
Tested on: DU-145 prostate
Experiment: NCI tumour cell line growth inhibition, 48 h

Here's what some known entries look like.
- COc1ccc(C2=NN(C(C)=O)C(c3cn(-c4ccccc4)nc3-c3ccc(Cl)cc3)C2)cc1 (stereo not drawn): > 100 µM
- COc1ccc(-c2ccc(C3CC(c4ccc(Cl)cc4)=NN3)o2)c([N+](=O)[O-])c1 (stereo not drawn): > 100 µM

Now look at this one.
Exercise: So what's the measured TGI for this one? O=C(CCCl)NNC1=NCCN1
Key: > 100 µM

====

Test system: RXF 393 renal
Test: NCI tumour cell line growth inhibition, 48 h
Reported property: TGI

Here's what some known entries look like.
- COC(=O)C1=C(CO)C2C=CC1C2 (centres undefined): > 100 µM
- COc1ccc(N2C(=O)C3c4[nH]c5cccc(C)c5c4C4CCC(C(C)(C)C)CC4C3C2=O)cc1 (centres undefined): > 10 µM
- CCOC(=O)c1c(C(F)(F)F)n([O-])c2ccc(OC)cc2[n+]1=O: > 100 µM

Exercise: So what's the measured TGI for this one? CCOC(=O)C1=c2[nH]c3cccc4cccc(c43)n2C=C(C(C)=O)C1CC(C)=O (centres undefined)
Key: > 100 µM

Exercise: So what's the measured TGI for this one? NCCCN1CCN(CC(=O)O)CCN(CCCN)CCN(CC(=O)O)CC1
Key: > 100 µM

Exercise: So what's the measured TGI for this one? CN(C1=NCCO1)c1cccc2c1CCCC2
Key: > 10 µM

====

Quick reference for TGI among some compounds
Test system: SK-MEL-28 melanoma
Test: NCI tumour cell line growth inhibition, 48 h

Here's what some known entries look like.
* COc1cc(/C=C2\COc3ccc(O)c(O)c3C2=O)cc(OC)c1 | 10.4 µM
* NS(=O)(=O)c1ccc(N2N=C3c4ccccc4CC3C2c2ccc(Cl)cc2)cc1 (stereo not given) | 28.7 µM
* N/N=C1/CCCc2nonc21 | > 100 µM

Exercise: Any idea what TGI came out for Oc1ccc(Cn2c(-c3ccc(O)c(O)c3)nc3ccccc32)cc1O on SK-MEL-28 melanoma?
Key: 78 µM

Exercise: Any idea what TGI came out for Cc1cccc(-c2cc(=S)c3cc(N4CCCC4)ccc3[nH]2)c1 on SK-MEL-28 melanoma?
Key: > 100 µM

Exercise: Any idea what TGI came out for CC(C)=CC(=O)Cc1nc2cc(C)c(C)cc2[nH]c1=O on SK-MEL-28 melanoma?
Key: > 100 µM

Exercise: Any idea what TGI came out for NCCNC(=S)S on SK-MEL-28 melanoma?
Key: > 100 µM

Exercise: Any idea what TGI came out for CN(/N=C/C=N/N(C)C1=NCCCCN1)C1=NCCCCN1 on SK-MEL-28 melanoma?
Key: > 100 µM

Exercise: Any idea what TGI came out for CCn1cnc2c(Nc3cccc(Cl)c3)nc(N[C@@H]3CCCC[C@@H]3N)nc21 on SK-MEL-28 melanoma?
Key: 3.42 µM

Exercise: Any idea what TGI came out for OCCN(CCO)c1ccc2c(c1)Cc1ccccc1-2 on SK-MEL-28 melanoma?
Key: > 100 µM

Exercise: Any idea what TGI came out for C[C@H]1[C@H](C)CC[C@]2(C(=O)O)CC[C@]3(C)C(=CC[C@@H]4[C@@]5(C)C/C(=C/c6ccco6)C(=O)C(C)(C)[C@@H]5CC[C@]43C)[C@H]12 on SK-MEL-28 melanoma?
Key: 17.5 µM

Exercise: Any idea what TGI came out for O=C(CCc1cccc(O)c1)NCCc1ccc(O)cc1 on SK-MEL-28 melanoma?
Key: > 100 µM
